Provenance of the data: ChEMBL document CHEMBL1201862

Catalogue of GI50 readings, one per entry.
Tested on: DU-145
Experiment: NCI tumour cell line growth inhibition, 48 h
Active and inactive are the calls of the source. Cut-off read from the data, not from the text of the source: active = GI50 up to about 1.1 µM and inactive = higher.

Solved cases (3 shown):
MOLECULE	RESULT
CCOC(=O)c1ccc(C(=O)/C(C(=O)OC(C)(C)C)=C2\CCCN2C)n1C	> 100 µM (inactive)
CN(C)CCCNc1ncnc2[nH]cnc12	> 100 µM (inactive)
CC(=O)[C@H]1[C@@H](OCc2ccccc2)O[N+]([O-])=C(C)[C@@H]1c1ccccc1	43.8 µM (inactive)

What value of GI50 has been recorded for this entry: CC1=CCC[C@]2(C)C1=CC(=O)O[C@H]2c1ccoc1
> 100 µM (inactive)

---

System: RXF 393
Test: NCI tumour cell line growth inhibition, 48 h
The source made the active and inactive calls. No stated cut-off is given here; in the data, active = GI50 up to about 1.1 µM and inactive = higher.
Output constraint: value belongs to active, inactive

MOLECULE	CLASS LABEL
C=CCNC1=C2C[C@@H](C)C[C@@H](OC)[C@H](OC(=O)CCN(C)C)[C@H](C)/C=C(\C)[C@@H](OC(N)=O)[C@H](OC)/C=C\C=C(/C)C(=O)NC(=CC1=O)C2=O	active
C/C=C/C(=O)[C@@H](O)C(C)C	inactive
CCOC(=O)C1(Br)S(=O)(=O)OCCOS1(=O)=O	inactive

Continue with the molecule presented below.
Outcome? CC(=O)c1ccc2c(c1)CC1(C2)Cc2ccccc2C1=O (centres undefined)
inactive

---

Catalogue of GI50 readings, one per entry.
System: EKVX
Assay: NCI tumour cell line growth inhibition, 48 h
Calls of active or inactive are those of the source. Rule as the data show it: active = GI50 up to about 1.1 µM and inactive = higher.

Solved cases (5 shown):
> print(dat)
                                   compound  recorded.metric                result
1  Cc1cc(NS(=O)(=O)c2ccc(NC(=O)c3ccc4nc5ccccc5c(Nc5ccc(S(N)(=O)=O)cc5)c4c3)cc2)no1             GI50    24.7 µM (inactive)
2  CC1C(c2ccccc2)O[B-](F)(c2ccccc2)[NH+]1C (stereo not given)             GI50   > 100 µM (inactive)
3  O=C1/C(=C/c2ccc(O)cc2)CCc2ccc([N+](=O)[O-])cc21             GI50  > 89.5 µM (inactive)
4  CCc1nc(N)nc(N)c1-c1ccc(NCCN)c([N+](=O)[O-])c1             GI50      29 µM (inactive)
5          COc1cccc(-c2nc(O)c3ccccc3n2)c1OC             GI50   > 100 µM (inactive)

What value of GI50 has been recorded for this entry: CC1=NCCc2cc3[nH]c4ccccc4c3cc21
41.2 µM (inactive)

Repeat for the following compound: CC(=O)OC12c3ccccc3C(c3ccccc31)C1C(=O)N(N=C(C)C)C(=O)C12 (stereo not given)
> 100 µM (inactive)

Repeat for the following compound: COc1ccccc1NC(=O)C1=C(C)NC(C)=C(C(=O)Nc2ccccc2OC)C1c1cccc2c1OCO2
> 100 µM (inactive)

Repeat for the following compound: Nc1ncc2c(n1)-c1ccccc1OC2NC1CC1 (stereo not given)
97.5 µM (inactive)

Repeat for the following compound: COC(=O)c1c(C)cccc1C1CN=NC12Cc1cccc(C)c1C2=O (stereo not given)
32 µM (inactive)

---

Test system: RPMI-8226
Test: NCI tumour cell line growth inhibition, 48 h
Activity calls are given as the source filed them. Cut-off read from the data, not from the text of the source: active = GI50 up to about 1.1 µM and inactive = higher.
RECORDED METRIC: GI50

Solved cases (5 shown):
COMPOUND	GI50
Cc1ccc(S(=O)(=O)O/N=C2\CCC\C2=C/c2ccccc2)cc1	16 µM (inactive)
CC[P+]1(CC)CCCC1	> 100 µM (inactive)
CC1(C)C/C(=N/O)c2c(nc3ccc4ccccc4c3c2-c2ccc(Cl)cc2)C1	27.2 µM (inactive)
N#Cc1cc2c(n(C3OC(CO)C(O)C(O)C3O)c1=S)CCC2 (centres undefined)	> 100 µM (inactive)
Nc1ncc2c(n1)-c1ccccc1OC2NC1CC1 (centres undefined)	> 100 µM (inactive)

Notebook entry, RPMI-8226 assay: GI50 of O=c1[nH]c(=O)n(C2CC(O)C(CO)O2)c2nc3ccc4cc5ccccc5cc4c3nc12 (centres undefined) = ?
> 100 µM (inactive)

Repeat for the following compound: CC(C)CCNC(=O)c1ccc(CNC(=O)/C=C/c2ccc(-c3ccccc3[N+](=O)[O-])o2)cc1
96.8 µM (inactive)

Repeat for the following compound: CC(C)(C)c1cc2c(O)c(c1)Cc1cc(C(C)(C)C)cc(c1O)Cc1cc(C(C)(C)C)cc(c1O)Cc1cc(C(C)(C)C)cc(c1O)Cc1cc(C(C)(C)C)cc(c1O)Cc1cc(C(C)(C)C)cc(c1O)Cc1cc(C(C)(C)C)cc(c1O)Cc1cc(C(C)(C)C)cc(c1O)C2
> 50 µM (inactive)

Repeat for the following compound: CC(C)(C)C1C=C(Sc2ccccc2)C(=O)O1 (centres undefined)
36 µM (inactive)

---

Test system: SK-MEL-2
Assay: NCI tumour cell line growth inhibition, 48 h
Active and inactive are the calls of the source. Cut-off read from the data, not from the text of the source: active = GI50 up to about 1.1 µM and inactive = higher.
Catalogue of GI50 readings, one per entry.

Solved cases (4 shown):
> print(dat)
                                   molecule  recorded.metric               result
1  CCC1(Br)C(=O)NC(=O)N(C2CC(O)C(CO)O2)C1N=[N+]=[N-] (stereo not given)             GI50  > 100 µM (inactive)
2  CC1OC(O[C@@H]2OC=C(C=O)[C@@]3(O)CC[C@H](C)[C@@H]23)C(O)C(O)C1O (stereo not given in full)             GI50  > 100 µM (inactive)
3          S=C(S)N1CCN(c2ccc(Cl)c(Cl)c2)CC1             GI50     17 µM (inactive)
4         CN(C)C=C1C(Cl)=C(C=O)CC(C=O)=C1Cl             GI50   17.6 µM (inactive)

# input for lookup
Notebook entry, SK-MEL-2 assay: GI50 of CCCCCCOc1ccc(NC2=C(Cl)C(=O)c3c(O)ccc(O)c3C2=O)cc1 = ?
2.96 µM (inactive)

---

System: SK-MEL-2
Experiment: NCI tumour cell line growth inhibition, 48 h
Activity calls are given as the source filed them. Rule as the data show it: active = GI50 up to about 1.1 µM and inactive = higher.
Catalogue of GI50 readings, one per entry.

MOLECULE	RESULT
CC(C)(C)CC(C)(C)c1cc2c(O)c(c1)Cc1cc(C(C)(C)CC(C)(C)C)cc(c1O)Cc1cc(C(C)(C)CC(C)(C)C)cc(c1O)Cc1cc(C(C)(C)CC(C)(C)C)cc(c1O)Cc1cc(C(C)(C)CC(C)(C)C)cc(c1O)C2	> 100 µM (inactive)
COC(=O)c1ccc2c(c1)CC1(C2)Cc2cc3c(cc2C1=O)CCC3 (stereo unspecified)	38.8 µM (inactive)
Oc1ccc(-c2cn3cc(C(F)(F)F)ccc3n2)cc1	62.2 µM (inactive)
CCCCc1c2c(nc3c1CCCC3O)CCCC2 (stereo unspecified)	> 100 µM (inactive)
O=C(OC1C#CCSCC#C/C=C\1)c1cnc2ccccc2n1 (stereo unspecified)	> 100 µM (inactive)
Oc1ccc2c(c1)OCC(O)(c1ccccc1O)C2 (stereo unspecified)	> 100 µM (inactive)
O=C(/C=C/c1ccc(OCC(=O)N2CCN(c3ccccc3)CC2)cc1)c1ccccc1	> 26.5 µM (inactive)
Cc1c(O)c(C)c2c(C)cn(C(=O)C(C)(C)C)c2c1C	28.2 µM (inactive)

Notebook entry, SK-MEL-2 assay: GI50 of C=C[C@@]1(O)CCCC[C@@H]1CC(Sc1ccccc1)Sc1ccccc1 = ?
16 µM (inactive)

Repeat for the following molecule: C[C@]12CC/C(=N\O)C=C1CC[C@@H]1[C@@H]2CC[C@]2(C)C(=N/O)/C(=C/c3ccncc3)C[C@@H]12
15 µM (inactive)

Repeat for the following molecule: CCOP(=O)(OCC)/C(C#N)=C/c1coc2cc(C)cc(C)c2c1=O
> 100 µM (inactive)

---

Tested on: SF-295
Assay: NCI tumour cell line growth inhibition, 48 h
Active and inactive are the calls of the source. No stated cut-off is given here; in the data, active = GI50 up to about 1.1 µM and inactive = higher.
Output constraint: value belongs to true = active, false = inactive

COMPOUND	TARGET OF ASSAY	CLASS LABEL
CC[P+]1(CC)CCCC1	SF-295	false
CCCCCCCCCCOC1C(C(O)CNCCCN(C)C)OC2OC3(CCCCC3)OC21 (stereo not given)	SF-295	false
C[C@H]1[C@H](C)N(Cc2ccccc2)P(=O)(C(O)/C=C/c2ccccc2)N1Cc1ccccc1 (stereo not given in full)	SF-295	false
COc1ccc(CCc2cc(OC)c(OC)c(OC)c2)cc1	SF-295	true
O=C(CSc1nc2nncc-2c(O)[nH]1)c1ccc(Cl)cc1	SF-295	false

Outcome? CN1C(=O)CC2CCCN2C1=O (stereo not given)
false

Repeat for the following compound: CNC(=S)/N=C(\N)N(C)C
false

Repeat for the following compound: COC(=O)[C@@H]1C[C@@H]2c3ccccc3N(S(=O)(=O)c3ccccc3)[C@@H]2N1C(=O)OC
false

Repeat for the following compound: CC1OC(OC2C(O[C@H]3CC[C@@]4(C)C(=CC[C@H]5[C@@H]6C[C@@H]7O[C@]8(CC[C@H](C)CN8)[C@@H](C)[C@@H]7[C@@]6(C)CC[C@@H]54)C3)OC(CO)C(O)C2OC2OC(CO)C(O)C(O)C2O)C(O)C(O)C1O (stereo not given in full)
false

Repeat for the following compound: CC(C)(C)OC/C=C(/CO)[C@@H]1C=C[C@H](O)C1
false
